These measurements were taken from PubChem BioAssay (NCATS).

- TEST CONDITIONS: Ebola virus entry assay, blue channel fluorescence
Activity calls are given as the source filed them. Calls come from the whole dose curve.

COMPOUND: CCC1C(=O)OCC1Cc1cncn1C (centres undefined)
AC50: inactive
--
COMPOUND: CO/N=C(\C(=O)N[C@@H]1C(=O)N2C(C(=O)O)=C(CSc3nc(=O)c(O)nn3C)CS[C@H]12)c1csc(N)n1
AC50: inactive
--
COMPOUND: C=C[C@H]1CN2CC[C@H]1C[C@@H]2[C@@H](O)c1ccnc2ccc(OC)cc12
AC50: inactive
--
COMPOUND: O=C1c2c(O)ccc(O)c2C(=O)c2c(NCCNCCO)ccc(NCCNCCO)c21
AC50: 5.01 µM (active)
